The reported numbers originate from patent US7101707B2.

Tested on: REC
Experiment: Capillary-like tube formation on MATRIGEL
Assay type: cell-based, bovine
Details: basal and growth factor-stimulated (CK2 blockers); H-7 preliminary, not shown
value-kind: effect of kinase inhibitors on tube formation

Fill in: effect of kinase inhibitors on tube formation of "OC[C@H]1O[C@@H](n2cnc3cc(Cl)c(Cl)cc32)[C@H](O)[C@@H]1O" is ___
potently inhibited

Fill in: effect of kinase inhibitors on tube formation of "O=c1c(O)c(-c2ccc(O)c(O)c2)oc2cc(O)cc(O)c12" is ___
potently inhibited

Fill in: effect of kinase inhibitors on tube formation of Cc1cc(O)c2c(c1)C(=O)c1cc(O)cc(O)c1C2=O [emodin, 3-methyl-1,6,8-trihydroxyanthraquinone] is ___
potently inhibited
